Biological target: human ether-à-go-go-related gene (hERG) potassium channel (human, UniProt Q12809);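 further: peak tail current of the secondary pulse compared with the same well before compound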
Sequence (Q12809 whole entry, looked up): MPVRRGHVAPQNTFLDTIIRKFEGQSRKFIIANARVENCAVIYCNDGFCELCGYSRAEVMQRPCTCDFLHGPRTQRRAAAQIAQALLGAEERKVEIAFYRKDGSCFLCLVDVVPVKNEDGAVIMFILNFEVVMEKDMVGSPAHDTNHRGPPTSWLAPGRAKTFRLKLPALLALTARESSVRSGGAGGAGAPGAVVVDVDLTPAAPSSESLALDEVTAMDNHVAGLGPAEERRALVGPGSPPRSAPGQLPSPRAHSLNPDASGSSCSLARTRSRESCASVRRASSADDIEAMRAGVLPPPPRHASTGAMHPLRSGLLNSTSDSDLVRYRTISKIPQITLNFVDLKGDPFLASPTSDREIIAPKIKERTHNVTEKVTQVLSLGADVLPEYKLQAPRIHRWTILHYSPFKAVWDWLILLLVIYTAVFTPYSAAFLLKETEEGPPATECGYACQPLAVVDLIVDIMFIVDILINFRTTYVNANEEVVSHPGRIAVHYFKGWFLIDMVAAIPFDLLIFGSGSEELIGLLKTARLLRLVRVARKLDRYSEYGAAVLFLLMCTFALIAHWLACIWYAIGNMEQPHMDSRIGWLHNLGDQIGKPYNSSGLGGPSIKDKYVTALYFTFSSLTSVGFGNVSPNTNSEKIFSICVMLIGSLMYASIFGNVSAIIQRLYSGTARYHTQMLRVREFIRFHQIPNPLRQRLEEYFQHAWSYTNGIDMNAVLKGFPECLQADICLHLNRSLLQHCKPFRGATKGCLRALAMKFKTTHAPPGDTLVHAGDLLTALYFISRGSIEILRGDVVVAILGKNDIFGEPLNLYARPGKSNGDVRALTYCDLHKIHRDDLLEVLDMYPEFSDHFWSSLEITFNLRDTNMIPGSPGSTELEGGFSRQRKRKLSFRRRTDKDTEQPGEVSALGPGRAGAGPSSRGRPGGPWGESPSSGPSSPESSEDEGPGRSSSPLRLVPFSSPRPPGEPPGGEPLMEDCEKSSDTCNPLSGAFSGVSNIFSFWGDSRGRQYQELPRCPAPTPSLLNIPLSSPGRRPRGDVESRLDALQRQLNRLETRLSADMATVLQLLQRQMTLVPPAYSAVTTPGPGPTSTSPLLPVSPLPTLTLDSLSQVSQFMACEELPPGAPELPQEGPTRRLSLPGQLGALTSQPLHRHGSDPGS
Test: primary screen, population patch clamp on CHO cells stably expressing hERG; higher = less effect of the substance
Out of some 310,000 compounds screened, about 14,000 (4.5%) showed an effect of 50% or more. The effect is printed as a negative number. Many of the other results were omitted from the sample, so strong results are more common in it than they were.
Readout Kind: hERG current change (%, negative = inhibition) at 10uM (%)

Compound	Quantitative Readout
CCn1cc(C(=O)N2CCOCC2)c(=O)c2cc(S(=O)(=O)N(C)C3CCCCC3)ccc21	0.899
COc1ccccc1N1CCN(Cc2ccccc2)CC1.O=C(O)C(=O)O	-7.21
CCOc1ccc(-c2nc(C#N)c(N3CCN(CC)CC3)o2)cc1	-47.3
COC(=O)c1cc2oc(C)cc2n1CC(=O)N(C)c1ccccc1	5.36
CCN(CC(=O)Nc1cc(C)on1)CC(=O)Nc1ccccc1C(F)(F)F	13.7
COc1ccc(CCC(=O)NNC(=O)Nc2ccccc2Cl)cc1	4.25
CCCCOC(=O)Cn1c(=N)n(CCN(CC)CC)c2ccccc21	-52.3
Cc1cc(OCCN2CCCC2)cc(C(C)C)c1.O=C(O)C(=O)O	-0.795
N#Cc1nc(-c2ccc([N+](=O)[O-])cc2)oc1N1CCCCC1	14.5
Cc1[nH]c(=O)[nH]c1C(=O)CCCCC(=O)O	-57.7
CCC(C)c1ccc(OCCN2CCCC2)cc1 (centres unmarked)	-15.4
C#CCOCCOCCOCCNc1nc(N2CCN(C(=O)[C@H](CCCC[NH3+])n3cc(CCCC)nn3)CC2)nc(N2CCN(C(=O)[C@H](CCCC[NH3+])n3cc(CCC(=O)O)nn3)CC2)n1.[Cl-]	17.4
CCn1cc(C(=O)N2CCCCC2)c(=O)c2cc(S(=O)(=O)N3CCC(C)CC3)ccc21	-18.4
CC1=C(C(=O)OCc2ccccc2)C(c2cccc3ccccc23)NC(=O)N1CCCC(=O)O (centres unmarked)	20.8
COc1ccccc1N1CCN(Cc2ccc(Br)cc2)CC1.O=C(O)C(=O)O	-70.3
CCn1cc(C(=O)N2CCN(c3ccccn3)CC2)c(=O)c2cc(S(=O)(=O)N3CCC(C)CC3)ccc21	-55.9
CC(=O)Nc1ccc(/C=N/N2CCCCC2)cc1	16.5
CN1CCN(c2oc(-c3ccc([N+](=O)[O-])cc3)nc2C#N)CC1	-66.1
COCCNC(=O)c1ccccc1NS(=O)(=O)c1ccc(Br)s1	0.678
Cn1ncc(Cl)c1C(=O)NNC(=O)Nc1cccc2ccccc12	7.09
CCOc1c(Cl)cc(CNc2ccc(S(N)(=O)=O)cc2)cc1OC	-3.11
CCOC(=O)N1CCN(C(=O)c2ccc3c(c2)sc2nc(-c4ccccc4)cn23)CC1	-49.3
COc1ccc(-c2nc(C#N)c(N3CCC(C(N)=O)CC3)o2)cc1	-15.6
CCN1CCN(c2oc(-c3ccc([N+](=O)[O-])cc3)nc2C#N)CC1	-53.1
CCCCOC(=O)Cn1c(=N)n(CCN2CCOCC2)c2ccccc21.Cl	-36.3
CCn1cc(C(=O)N2CCCC2)c(=O)c2cc(S(=O)(=O)N3CCC(C)CC3)ccc21	6.02
